- measured_on: Polyunsaturated fatty acid 5-lipoxygenase (Rattus norvegicus)
- Sequence (P12527 whole entry): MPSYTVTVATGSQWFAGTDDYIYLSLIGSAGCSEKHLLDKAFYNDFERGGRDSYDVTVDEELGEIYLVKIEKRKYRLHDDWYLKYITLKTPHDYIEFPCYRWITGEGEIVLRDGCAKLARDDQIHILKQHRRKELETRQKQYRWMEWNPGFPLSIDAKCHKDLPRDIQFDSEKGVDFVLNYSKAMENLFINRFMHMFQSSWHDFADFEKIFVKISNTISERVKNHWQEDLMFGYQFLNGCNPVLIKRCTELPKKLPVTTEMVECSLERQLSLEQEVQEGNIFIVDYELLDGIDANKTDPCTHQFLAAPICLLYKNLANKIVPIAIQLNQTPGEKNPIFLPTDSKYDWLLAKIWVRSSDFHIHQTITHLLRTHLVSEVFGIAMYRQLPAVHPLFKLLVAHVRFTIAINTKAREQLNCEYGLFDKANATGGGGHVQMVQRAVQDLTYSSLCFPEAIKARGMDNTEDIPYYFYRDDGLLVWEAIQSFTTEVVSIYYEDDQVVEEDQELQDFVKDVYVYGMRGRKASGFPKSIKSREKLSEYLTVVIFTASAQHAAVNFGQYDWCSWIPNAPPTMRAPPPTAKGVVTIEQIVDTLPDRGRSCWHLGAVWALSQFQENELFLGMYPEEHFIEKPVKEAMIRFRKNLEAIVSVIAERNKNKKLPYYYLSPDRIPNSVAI
- protocol_notes: Inhibitory activity against 5-Lipoxygenase
Quick list: IC50 per entry.
Number only, in nM; omit the unit.

CC(C)(C)c1cc(-c2nsc(NC#N)n2)cc(C(C)(C)C)c1O.C[N+](C)(C)CC[O-] :: 1900
CCO/C=N/c1noc(-c2cc(C(C)(C)C)c(O)c(C(C)(C)C)c2)n1 :: 1500
CC(C)(C)c1cc(-c2nnc(S)s2)cc(C(C)(C)C)c1O.C[N+](C)(C)CC[O-] :: 2800

Memo: `CC(C)(C)c1cc(-c2nc(CCl)no2)cc(C(C)(C)C)c1O` , reported IC50: 780
